FYI, the data here is from ChEMBL document CHEMBL4387740.

Tested on: Hippocampus
Test: Inhibition of NMDA-induced spectrin degradation in rat hippocampal slices
Format: functional, tissue-based
experimental.endpoint: pIC50
Notebook: values listed as pIC50 are -log10 of the concentration (mol/L).

The measured pIC50 associated with O=C(NC1CC1)C(=O)C(Cc1ccccc1)NC(=O)[C@H]1CCC(=O)N1Cc1ccccc1 (stereo partly specified) reads 6.41

====

Field: Selectivity ratio. Provide a value for each of the molecules that follow.
Species on record: Homo sapiens
Assay: Selectivity ratio, ratio of Ki for CatL (unknown origin) to Ki for Cal1 (unknown origin)
No unit in the answer, only the number.

The measured Selectivity ratio associated with NC(=O)C(=O)C(Cc1ccccc1)NC(=O)[C@H]1CCC(=O)N1Cc1ccccc1C(F)(F)F (mixture of isomers) reads 65

The measured Selectivity ratio associated with NC(=O)C(=O)C(Cc1ccccc1)NC(=O)[C@@H]1CCC(=O)N1Cc1ccccc1 (mixture of isomers) reads 6

The measured Selectivity ratio associated with NC(=O)C(=O)C(Cc1ccccc1)NC(=O)c1cccnc1-n1ccc(-c2ccc(F)cc2)n1 (configuration not stated) reads 127

The measured Selectivity ratio associated with COc1cccc(C(F)(F)F)c1CN1C(=O)CC[C@@H]1C(=O)NC(Cc1ccccc1)C(=O)C(N)=O (mixture of isomers) reads 387

The measured Selectivity ratio associated with NC(=O)C(=O)C(Cc1ccccc1)NC(=O)[C@H]1CCC(=O)N1Cc1ccccc1 (mixture of isomers) reads 15

The measured Selectivity ratio associated with NC(=O)C(=O)C(Cc1ccccc1)NC(=O)[C@H]1CCC(=O)N1Cc1cccc(OC(F)(F)F)c1 (mixture of isomers) reads 4

The measured Selectivity ratio associated with CN1C[C@H](C(=O)NC(Cc2ccccc2)C(=O)C(N)=O)N(Cc2ccccc2)C1=O (mixture of isomers) reads 3
